Test system: UACC-62 melanoma
Assay: NCI tumour cell line growth inhibition, 48 h
Entries and their measured TGI follow.

Answered examples (5):
compound: C1CSC(Sc2nc(SC3=NCCS3)nc(SC3=NCCS3)n2)=N1
observed-property: TGI
result: > 100 µM
--
compound: O=[N+]([O-])c1cc(Cl)c(Cl)cc1[N+](=O)[O-]
observed-property: TGI
result: 4.42 µM
--
compound: CC12CP(=O)(c3ccccc3)CC1c1ccccc1C2c1ccccc1 (configuration not stated)
observed-property: TGI
result: > 100 µM
--
compound: COc1cc([C@@H]2c3cc4c(cc3[C@@H](Nc3ccc(N=Cc5ccc(C(=O)O[C@@H](C(=O)O[C@H]6C[C@@]7(O)[C@@H](OC(=O)c8ccccc8)[C@@H]8[C@]9(OC(C)=O)CO[C@@H]9C[C@H](O)[C@@]8(C)C(=O)[C@H](OC(C)=O)C(=C6C)C7(C)C)[C@@H](NC(=O)c6ccccc6)c6ccccc6)cc5)cc3)[C@H]3COC(=O)[C@H]23)OCO4)cc(OC)c1O
observed-property: TGI
result: > 50 µM
--
compound: CCOC(=O)C1CCCCN1C(=O)OCc1ccccc1 (configuration not stated)
observed-property: TGI
result: > 100 µM

Query block: # TGI lookup, item c1cc2c(s1)SSSSS2
Result block: 28.1 µM

Query block: Repeat for the following compound: O=C(Cc1nc2ccccc2o1)C(=O)Nc1ccccc1C(F)(F)F
Result block: > 100 µM

* * *

Tested on: HT29 colon
Assay: NCI tumour cell line growth inhibition, 48 h
observed-property: TGI

Consider the worked cases shown below.
compound: COc1ccc(CC(C)=C(c2ccc(OCCN3CCCCCC3)cc2)c2ccc(OCCN3CCCCCC3)cc2)cc1
TGI: 0.181 µM

compound: CC1CCC2(OCCO2)[C@]2(C)CC(O)C(=O)C=C12 (stereo not given in full)
TGI: > 100 µM

Query block: Request body: readout TGI, system HT29 colon, query O=C1C(c2c(O)[nH]c3ccc([N+](=O)[O-])cc23)=Nc2ccccc21 . Return the value.
Result block: > 100 µM

Query block: Same question, O=C(c1nc2ccc(Cl)cc2[nH]c1=O)C(O)c1ccccc1 (stereo not given) this time
Result block: > 100 µM

Query block: And the next one, CC1=CC(C)(C)[C@H]2O[C@@]3(O)C[C@]4(C)[C@H]5C[C@@](C(C)C)(O[C@H]4c4ccoc4)O[C@H]4[C@]5(C3)O[C@@]1(O)[C@]24O ?
Result block: > 100 µM

* * *

Tested on: EKVX NSCLC
Test: NCI tumour cell line growth inhibition, 48 h; in the data active = GI50 below about 0.43 µM; inactive = the rest
Your answer must be one of the following: t for active, f for inactive

Before answering, review these 5 worked examples.
compound-structure-string: COc1cc(-c2ccc(-c3ccc(C(=N)N)cc3)s2)cc(OC)c1OC
label-class: f
//
compound-structure-string: COc1cc2c(cc1OCCCCCn1c(-c3ccc(OCc4ccccc4)cc3)nc3cc(N4CCOCC4)ccc31)N=C[C@@H]1CCCN1C2=O
label-class: f
//
compound-structure-string: Cn1ncc(NC(=O)c2nc(-c3c(F)cccc3F)sc2N)c1N1CC[C@@H](N)[C@H](F)CC1
label-class: f
//
compound-structure-string: C[n+]1c(-c2ccccc2)c2cc(N)ccc2c2ccccc21
label-class: f
//
compound-structure-string: COc1ccc(/C=C/C(=O)c2cc3c(N)c(C(=O)Nc4cccc(Cl)c4C)sc3nc2C)cc1
label-class: t

Query block: Answer briefly: the call reported for O=C(COc1nc2ccccc2nc1-c1ccccc1)Nc1ccc(Cl)cc1 in this assay.
Result block: f

Query block: Item: COc1cc(/C=C/c2cc(/C=C/c3ccc(O)c(OC)c3)n(-c3c(Cl)cccc3Cl)c(=O)n2)ccc1O
Result block: f

Query block: Similarly, O=C1C=CC(=O)c2cc3cc(CO)ccc3cc21 ?
Result block: f

Query block: Try COc1cc2c(cc1I)-c1c(cc(OC)c(OC)c1OC)CC[C@@H]2NC(C)=O next.
Result block: f

Query block: Entry CCC(CC)c1nc(Nc2cccc(OC)c2)c2ccccc2n1 please
Result block: f

* * *

Tested on: CCRF-CEM leukemia
Assay: NCI tumour cell line growth inhibition, 48 h; in the data active means GI50 below about 0.43 µM; inactive means the rest
Classes to choose from: Yes = active, No = inactive

molecule: O=C1Nc2ccccc2/C1=C\c1c(Cl)nc2sccn12
label-class: No

Query block: Please let me know the test result on file for NC1CCCCC1N.Nc1c(N=Nc2ccc(-c3ccc(N=Nc4cc(S(=O)(=O)[O-])c5ccccc5c4N)cc3)cc2)cc(S(=O)(=O)[O-])c2ccccc12.[OH3+].[OH3+].[Pt+4] .
Result block: No

Query block: Also need CCC[CH2][Sn]1([CH2]CCC)[O]C(=O)c2cccc(C)c2[O]1 , thanks.
Result block: Yes

Query block: // query: CNC(=O)NCC1OC(n2cnc3c(NC(=O)Nc4ccccc4)ncnc32)C(O[Si](C)(C)C(C)(C)C)C1CC(=O)N(C)OC (configuration not stated)
Result block: No

* * *

Here the recorded TGI is given for each entry.
Tested on: LOX IMVI melanoma
Test: NCI tumour cell line growth inhibition, 48 h
Kindly answer with a numeric value in µM, unit omitted.

compound: CCCCCCCCOCC(CO)OCCCCCCCC (stereo unspecified)
recorded-number: 32
//
compound: COC1=CC(=Nc2c(Cl)cc(Cl)cc2OC(=O)c2ccc([N+](=O)[O-])cc2)C=C(OC)C1=O
recorded-number: 5.67
//
compound: CN(C)/C=C1\CCc2ccc([N+](=O)[O-])cc2C1=O
recorded-number: 42.6
//
compound: C[C@@]1(Br)C[C@@](C)(Cl)[C@@H](Br)CC1/C=C/Cl (stereo partly specified)
recorded-number: 31.4
//
compound: CCC[CH2][Sn]1([CH2]CCC)[O]C(=O)c2cccc(C)c2[O]1
recorded-number: 0.448
//
compound: [N-]=[N+]=Nc1c(Cc2ccccc2)c(=O)oc2ccccc12
recorded-number: 28.4
//
compound: CCN(CC)Cc1cc(Nc2c3ccc(Cl)cc3nc3ccc(OC)cc23)ccc1O
recorded-number: 3.82
//
compound: COc1ccc(-c2cc(-c3ccccc3)nc(SCCCC(=O)NO)n2)cc1OC
recorded-number: 2.44

Query block: What is its TGI for LOX IMVI melanoma? Entry: CCCN=Cc1c(O)c(O)c(C(C)C)c2cc(C)c(-c3c(C)cc4c(C(C)C)c(O)c(O)c(C=NCCC)c4c3O)c(O)c12
Result block: 24.5

Query block: Also need COc1cc2c(cc1I)-c1c(cc(OC)c(OC)c1OC)CC[C@@H]2NC(C)=O , thanks.
Result block: 18.7

* * *

Test system: SN12C renal
Assay: NCI tumour cell line growth inhibition, 48 h
Property: GI50; scope: individual compounds

Examples with their reported GI50 follow.
compound-structure-string: c1ccc([P+](c2ccccc2)(c2ccccc2)c2ccc3c4ccc([P+](c5ccccc5)(c5ccccc5)c5ccccc5)c5cccc(c6cccc2c63)c54)cc1
subject-of-test: SN12C renal
GI50: 1090 nM
--
compound-structure-string: COc1cc2c3c(n(CCCNCCNCCN)c(=O)c2cc1OC)-c1cc2c(cc1C3=O)OCO2
subject-of-test: SN12C renal
GI50: 2500 nM
--
compound-structure-string: N#Cc1c(-c2ccccc2)cc(-c2ccccc2)n(CCCC(=O)NO)c1=O
subject-of-test: SN12C renal
GI50: 2340 nM

Query block: What does the data say about its GI50? Entry: COc1cc(/C=C/c2cc(/C=C/c3ccc(O)c(OC)c3)n(-c3c(Cl)cccc3Cl)c(=O)n2)ccc1O
Result block: 4820 nM

Query block: Now the compound Cn1ccc(=O)c2c(O)c3ccccc3c(O)c21
Result block: 78100 nM

* * *

Tested on: NCI-H522 lung
Assay: NCI tumour cell line growth inhibition, 48 h; in the data active = GI50 below about 0.43 µM; inactive = the rest
The reply should be one of these categories: active, inactive

Observe how each entry below is paired with its result.
compound: O=C1C=CC(=O)c2cc3cc(CO)ccc3cc21
label-class: inactive
//
compound: CN(C)c1cc[n+](/C(NS(=O)(=O)c2cc(C(=O)Nc3ccc(Cl)cc3)c(Cl)cc2[S-])=C(\C#N)C(=O)c2ccccc2)cc1
label-class: inactive
//
compound: C#CCn1cnc2cnc(Nc3cccc(NC(=O)CCl)c3)nc21
label-class: inactive

Query block: Called result for CCN(CC)Cc1cc(Nc2c3ccc(Cl)cc3nc3ccc(OC)cc23)ccc1O
Result block: inactive

Query block: Same question for CCO/C=N/C1=C(C#N)C(c2ccc(OC)cc2)c2sc3c(F)cccc3c2O1 (stereo not given) please.
Result block: inactive

Query block: Also, CCCCCCCCCCS(=O)CC(CO)NC(=O)/C=C/c1c(C)[nH]c(=O)[nH]c1=O (stereo not given) please.
Result block: inactive

Query block: Cool, now Nc1nonc1C(=Nc1ccc(F)c(Cl)c1)NO
Result block: inactive

Query block: Another: C=C1C(=O)O[C@H]2[C@H]1CC/C(COC(=O)/C=C/C(=O)NCc1ccc(Cn3c(=O)sn(-c4ccccc4)c3=O)cc1)=C\CC[C@@]1(C)O[C@@H]21
Result block: active

Query block: Entry to check: COc1cc(/C=C/c2cc(/C=C/c3ccc(O)c(OC)c3)n(-c3c(Cl)cccc3Cl)c(=O)n2)ccc1O
Result block: inactive

Query block: Quick one: CC(=O)/C=C/c1ccc(OCc2ccc(C(C)(C)C)cc2)cc1
Result block: inactive
